target-or-system: BRAF G466V (Homo sapiens, UniProt P15056, G466V)
Construct: Horizon Discovery (HCT-116 BRAF−/− cells); host or cells: HCT-116 BRAF−/− cells, clone 8, lentiviral transduction
Sequence (P15056 whole entry G466V): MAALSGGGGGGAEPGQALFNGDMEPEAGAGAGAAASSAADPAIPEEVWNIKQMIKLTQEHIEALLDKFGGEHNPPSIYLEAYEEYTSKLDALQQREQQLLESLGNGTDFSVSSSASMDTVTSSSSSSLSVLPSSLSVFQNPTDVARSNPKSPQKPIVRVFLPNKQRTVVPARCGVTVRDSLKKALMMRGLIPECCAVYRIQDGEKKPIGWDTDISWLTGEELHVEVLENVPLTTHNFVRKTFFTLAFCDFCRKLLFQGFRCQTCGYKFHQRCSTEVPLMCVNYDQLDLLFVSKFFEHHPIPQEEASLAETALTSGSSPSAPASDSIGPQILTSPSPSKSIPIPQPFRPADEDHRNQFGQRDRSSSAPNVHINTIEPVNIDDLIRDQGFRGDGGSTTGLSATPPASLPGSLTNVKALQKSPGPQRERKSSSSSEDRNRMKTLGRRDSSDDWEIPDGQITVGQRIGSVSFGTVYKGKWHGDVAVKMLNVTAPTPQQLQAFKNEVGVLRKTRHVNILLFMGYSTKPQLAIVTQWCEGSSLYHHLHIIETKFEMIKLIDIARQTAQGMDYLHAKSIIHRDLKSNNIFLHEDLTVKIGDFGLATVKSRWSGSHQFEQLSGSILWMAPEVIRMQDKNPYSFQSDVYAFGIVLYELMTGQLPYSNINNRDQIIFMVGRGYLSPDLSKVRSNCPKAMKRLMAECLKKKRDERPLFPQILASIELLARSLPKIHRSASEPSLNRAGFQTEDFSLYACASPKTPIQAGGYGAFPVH
assay-notes: BRAF HiBiT degradation assay, C-terminal HiBiT-tagged BRAF G466V overexpressed in HCT-116 BRAF−/− cells (clone 8), Nano-Glo HiBiT Lytic assay
Format: cell-based
stated-conditions: BRAF G466V (Class 3), HCT-116 BRAF−/− cells; observed Dmax relative to DMSO control
This listing pairs compounds with measured Dmax.

Study these solved cases before continuing.
{"compound": "O=C1CCN(c2ccc(N3CCC(CN4CCN(c5ccc(-n6cc(-c7cc(Cl)cc(NS(=O)(=O)N8CC(F)C8)c7F)c(-c7ccncc7)n6)cc5)CC4)CC3)nc2)C(=O)N1 [Compound 368]", "Dmax": "30 to 70%"}
{"compound": "O=C1CCN(c2ccc(N3CCC(CN4CCN(c5ccc(-n6cc(-c7cc(Cl)cc(NS(=O)(=O)N8CC[C@@H](F)C8)c7F)c(-c7ccncc7)n6)nc5)CC4)CC3)cc2)C(=O)N1 [Compound 295]", "Dmax": "30 to 70%"}
{"compound": "CCN(C)S(=O)(=O)Nc1cc(Cl)cc(-c2cn(-c3ccc(N4CCN(CC5CCN(c6ccc(N7CCC(=O)NC7=O)cc6)CC5)CC4)cc3)nc2-c2ccncc2)c1F [Compound 307]", "Dmax": "> 70%"}
{"compound": "CCN(C)S(=O)(=O)Nc1cc(Cl)cc(-c2cn(-c3ccc(N4CCN(CC5CCN(c6ccc([C@H]7CCC(=O)NC7=O)cc6)CC5)CC4)cn3)nc2-c2ccncc2)c1F [Compound 310]", "Dmax": "> 70%"}

Proceed to the following item.
Prompt: What value of measured Dmax is listed for C[C@@H]1CN(c2ccc(-n3cc(-c4cc(F)cc(NS(=O)(=O)N5CCCC5)c4F)c(-c4ccncc4)n3)c(F)c2)CCN1CC1CCN(c2ccc(C3CCC(=O)NC3=O)cn2)CC1 (mixture of isomers) [Compound 289] ?
Completion: > 70%

* * *

target-or-system: BRAF V600E (Homo sapiens, UniProt P15056, V600E)
Construct: endogenous C-terminal HiBiT fusion tag on BRAF V600E allele; endogenous in cells; host or cells: A375 clone 1F10 (CRISPR-Cas9 knock-in of the HiBiT tag; parental A375 from ATCC)
Sequence (P15056 whole entry V600E, the tested form may be a part): as the sequence (P15056 whole entry G466V) above, with V466G, V600E counted along it
assay-notes: BRAF HiBiT degradation assay, C-terminal HiBiT-tagged BRAF V600E A375 cells (clone 1F10), Nano-Glo HiBiT Lytic assay
Assay type: cell-based
stated-conditions: A-375; A375 (BRAF V600E); percentage protein degraded at maximal compound effect relative to DMSO
property-name: Dmax

Here's what some known entries look like.
{"compound": "CCCS(=O)(=O)Nc1cccc(-c2nc(C(C)(C)C)sc2-c2ccnc(Nc3cnn(CC4CCN(C(=O)C[C@@H]5CCN(c6ccc(C7CCC(=O)NC7=O)cc6)C5)CC4)c3)n2)c1F (mixture of isomers)", "target-or-system": "BRAF V600E (Homo sapiens, UniProt P15056, V600E)", "endpoint-value": "30 to 70%"}
{"compound": "CCCS(=O)(=O)Nc1cccc(-c2nc(C(C)(C)C)sc2-c2ccnc(Nc3ccc(C4CCN(C[C@H]5CC[C@H](Oc6ccc(C7CCC(=O)NC7=O)cn6)CC5)CC4)cc3)n2)c1F (mixture of isomers)", "target-or-system": "BRAF V600E (Homo sapiens, UniProt P15056, V600E)", "endpoint-value": "> 70%"}
{"compound": "CCCS(=O)(=O)Nc1cccc(-c2nc(C3CCN(C(=O)C4CCN(CC5CCN(c6ccc(C7CCC(=O)NC7=O)cc6)CC5)CC4)CC3)sc2-c2ccnc(N)n2)c1F (racemic)", "target-or-system": "BRAF V600E (Homo sapiens, UniProt P15056, V600E)", "endpoint-value": "> 70%"}
{"compound": "CCN(C)S(=O)(=O)Nc1cccc(-c2nc(C(C)(C)C)sc2-c2ccnc(Nc3ccc(N4CCN(CC5CC6(C5)CN(c5ccc(C7CCC(=O)NC7=O)cn5)C6)CC4)cn3)n2)c1F (racemic)", "target-or-system": "BRAF V600E (Homo sapiens, UniProt P15056, V600E)", "endpoint-value": "> 70%"}

For the next question, use this compound.
Prompt: Which measured Dmax value corresponds to CCN(C)S(=O)(=O)Nc1cccc(-c2nc(C(C)(C)C)sc2-c2ccnc(Nc3ccc(N4CCN(C(=O)C5(C)CCN(c6ccc(C7CCC(=O)NC7=O)cn6)CC5)CC4)cn3)n2)c1F (racemic) ?
Completion: > 70%

* * *

target-or-system: BRAF G469A (Homo sapiens, UniProt P15056, G469A)
Construct: Horizon Discovery (HCT-116 BRAF−/− cells); host or cells: HCT-116 BRAF−/− cells, clone 34, lentiviral transduction
Sequence (P15056 whole entry G469A): as the sequence (P15056 whole entry G466V) above, with V466G, G469A counted along it
assay-notes: BRAF HiBiT degradation assay, C-terminal HiBiT-tagged BRAF G469A overexpressed in HCT-116 BRAF−/− cells (clone 34), Nano-Glo HiBiT Lytic assay
Assay type: cell-based
stated-conditions: BRAF G469A (Class 2), HCT-116 BRAF−/− cells; DC50 at 50% degradation
property-name: DC50

{"molecule": "C[C@@H]1CN(c2ccc(-n3cc(-c4cc(F)cc(NS(=O)(=O)N5CCCC5)c4F)c(-c4ccncc4)n3)c(F)c2)CCN1CC1CCN(c2ccc(C3CCC(=O)NC3=O)cn2)CC1 (mixture of isomers)", "target-or-system": "BRAF G469A (Homo sapiens, UniProt P15056, G469A)", "DC50": "10 to 50 nM"}
{"molecule": "O=C1CCC(c2ccc(N3CCC(CN4CCN(c5ccc(-n6cc(-c7cc(Cl)cc(NS(=O)(=O)C8CCCC8)c7F)c(-c7ccncc7)n6)cc5)CC4)CC3)nc2)C(=O)N1 (racemic)", "target-or-system": "BRAF G469A (Homo sapiens, UniProt P15056, G469A)", "DC50": "10 to 50 nM"}
{"molecule": "CCCS(=O)(=O)Nc1cccc(-c2nc(C3CCC4(CC3)CCN(C(=O)C3CCN(c5ccc(C(=O)NC6CCC(=O)NC6=O)nc5)CC3)CC4)sc2-c2ccnc(N)n2)c1F (racemic)", "target-or-system": "BRAF G469A (Homo sapiens, UniProt P15056, G469A)", "DC50": "> 500 nM"}

Prompt: What does the data say about its DC50? Entry: `CCN(C)S(=O)(=O)Nc1cc(F)cc(-c2cn(-c3ccc(N4CCN(CC5CCN(c6ccc([C@H]7CCC(=O)NC7=O)cc6)CC5)CC4)cc3)nc2-c2ccncc2)c1F`
Completion: < 10 nM

Prompt: Entry CCCS(=O)(=O)Nc1cc(Cl)cc(-c2cn(-c3ccc(N4CCN(CC5CCN(c6ccc(C7CCC(=O)NC7=O)cn6)CC5)[C@H](C)C4)cc3)nc2-c2ccncc2)c1F (mixture of isomers) please
Completion: < 10 nM

Prompt: Query `C[C@@H]1CN(c2ccc(-n3cc(-c4cc(Cl)cc(NS(=O)(=O)N5CCCC5)c4F)c(-c4ccncc4)n3)nc2)CCN1CC1CCN(c2ccc(N3CCC(=O)NC3=O)cc2)CC1` next
Completion: 50 to 500 nM

Prompt: What do we get for `O=C1CCN(c2ccc(N3CCC(CN4CCN(c5ccc(-n6cc(-c7cc(Cl)cc(NS(=O)(=O)C8CCCC8)c7F)c(-c7ccncc7)n6)cc5)CC4)CC3)nc2)C(=O)N1` ?
Completion: 10 to 50 nM

* * *

target-or-system: BRAF G466V (Homo sapiens, UniProt P15056, G466V)
Construct: Horizon Discovery (HCT-116 BRAF−/− cells); host or cells: HCT-116 BRAF−/− cells, clone 8, lentiviral transduction
assay-notes: BRAF HiBiT degradation assay, C-terminal HiBiT-tagged BRAF G466V overexpressed in HCT-116 BRAF−/− cells (clone 8), Nano-Glo HiBiT Lytic assay
Type: cell-based
stated-conditions: HCT-116; BRAF G466V; percentage protein degraded at maximal compound effect relative to DMSO
Experimental: An A375 cell line expressing a homozygous V600E mutation was purchased from ATCC (Manassas, VA, USA). […] HiBiT signal was measured by a Nano-Glo HiBiT Lytic assay (Promega cat. no. N3050). […] Luminesce units (LU) were read on an EnVision plate reader 2105 (Perkin Elmer). Percent protein remaining and viability remaining per sample were calculated as follows: […]
property-name: Dmax

Some entries whose results are on file:
{"compound": "CCCS(=O)(=O)Nc1cccc(-c2nc(C(C)(C)C)sc2-c2ccnc(Nc3ccc(C4CCN(CC5CCN(c6ccc(C7CCC(=O)NC7=O)cn6)CC5)CC4)cc3)n2)c1F (racemic)", "endpoint-value": "30 to 70%"}
{"compound": "CCCS(=O)(=O)Nc1cccc(-c2nc(C(C)(C)C)sc2-c2ccnc(Nc3ccc4c(c3)CCN(C(=O)CN3CCC(c5ccc(NC6CCC(=O)NC6=O)cc5)CC3)C4)n2)c1F (racemic)", "endpoint-value": "< 30%"}
{"compound": "CCCS(=O)(=O)Nc1cccc(-c2nc(C(C)(C)C)sc2-c2ccnc(NCC(C)(C)C3CCN(CC4CCN(c5ccc(C(=O)N[C@H]6CCC(=O)NC6=O)nc5)CC4)CC3)n2)c1F", "endpoint-value": "30 to 70%"}
{"compound": "CCCS(=O)(=O)Nc1cccc(-c2nc(C)sc2-c2ccnc(Nc3ccc(N4CCN(CC5CCN(c6ccc([C@@H]7CCC(=O)NC7=O)cc6)CC5)CC4)cn3)n2)c1F", "endpoint-value": "30 to 70%"}
{"compound": "CCCS(=O)(=O)Nc1cccc(-c2cn(-c3ccc(C4CCN(CC5CCN(c6ccc([C@@H]7CCC(=O)NC7=O)cc6)CC5)CC4)cc3)nc2-c2ccncc2)c1F", "endpoint-value": "30 to 70%"}
{"compound": "CCCS(=O)(=O)Nc1cccc(-c2nc(C(C)(C)C)sc2-c2ccnc(NC3CC4(C3)CN(CC3CCN(c5ccc(C(=O)NC6CCC(=O)NC6=O)cc5)CC3)C4)n2)c1F (racemic)", "endpoint-value": "< 30%"}
{"compound": "CCCS(=O)(=O)Nc1cccc(-c2nc(C3CCN(C(=O)C4(C)CCN(C(=O)C5CCN(c6ccc(C7CCC(=O)NC7=O)cn6)CC5)CC4)CC3)sc2-c2ccnc(N)n2)c1F (racemic)", "endpoint-value": "30 to 70%"}
{"compound": "CCCS(=O)(=O)Nc1cccc(-c2nc(C3CCN(C(=O)C4CCN(C(=O)C5CCN(c6ccc(C7CCC(=O)NC7=O)cn6)CC5)CC4)CC3)sc2-c2ccnc(NC)n2)c1F (racemic)", "endpoint-value": "30 to 70%"}
{"compound": "CCCS(=O)(=O)Nc1cccc(-c2nc(C(C)(C)C)sc2-c2ccnc(Nc3ccc(C4CCN(C(=O)[C@@H]5CCN(c6ccc(C7CCC(=O)NC7=O)cn6)C5)CC4)cc3)n2)c1F (mixture of isomers)", "endpoint-value": "30 to 70%"}

Next compound, please.
Prompt: Sample CCCS(=O)(=O)Nc1cccc(-c2nc(C(C)(C)C)sc2-c2ccnc(Nc3cnn(C4CCN(C(=O)[C@H]5CC[C@H](Oc6ccc(C7CCC(=O)NC7=O)cc6)CC5)CC4)c3)n2)c1F (mixture of isomers) — what was its Dmax?
Completion: < 30%
